For each record, write down the corresponding TGI.
Test system: HOP-62 NSCLC
test.description: NCI tumour cell line growth inhibition, 48 h
Answers are plain numbers, in µM.

Reference set (3 entries):
CC1(C)N=C(N)N=C(N)N1c1cccc(/C=C/C=C/c2cccc([N+](=O)[O-])c2)c1 :: 35.9
COC(=O)[C@@H]1C=C[C@@H](C#N)n2c(=O)n(-c3ccccc3)c(=O)n21 :: 56.2
C[C@H]1[C@H](OC(=O)CCC(=O)O)O[C@@H]2O[C@]3(C)CC[C@H]4[C@H](C)CC[C@@H]1[C@@]24OO3 :: 27.3

Could you now consider this next compound?
Input: Using the record for `O/N=c1/ccn(O)c2ccccc12` , report its TGI.
Output: 9.43

---

Tested on: RXF 393 renal
test.description: NCI tumour cell line growth inhibition, 48 h
measurement.name: TGI (µM)
Answers are plain numbers, in µM.

Reference set (3 entries):
O=C1c2cc3c(cc2-c2c1c1cc(Cl)c(Cl)cc1c(=O)n2CCCn1ccnc1)OCO3 :: 0.0566
CC(O)c1c2c(cc3c1CC1(C3)Cc3cc4c(c(C(C)O)c3C1)CCC4)CCC2 (centres undefined) :: 30
C[C@H](CCC1=NCCN1)[C@H]1CC[C@H]2[C@@H]3[C@H](O)C[C@@H]4C[C@H](O)CC[C@]4(C)[C@H]3CC[C@]12C :: 31.6

For every record below, what is its TGI?
1. COC(=O)[C@]12CC[C@@H](C)[C@H](C)[C@@H]1C1=CC[C@@H]3[C@@]4(C)CC(=O)[C@H](O)[C@@]5(C)COC(=C45)C[C@@]3(C)[C@]1(C)CC2
2. CN1CCN(c2nc3ccccc3nc2C(=O)c2ccc(Cl)cc2)CC1
3. O/N=C1/C(=C/c2ccc(F)cc2)CCCC1C(NO)c1ccc(F)cc1 (centres undefined)
4. COc1cc(O)c(C(=O)/C=C/c2ccccc2)c(OC)c1

Output:
1. 31.4
2. 77.3
3. 86.6
4. 32.8

For every record below, what is its TGI?
1. CCN(CC)CCN1CCNc2c3cc(OC)ccc3nc3c([N+](=O)[O-])ccc1c23
2. CC(=O)Oc1ccccc1[C@H]1CC(=O)C[C@H](c2ccccc2OC(C)=O)C12C(=O)c1ccccc1C2=O
3. CC(Cl)(/C=C/Cl)C(Cl)/C=C/C(Cl)(CCl)CBr (centres undefined)
4. COc1cc2c3c(n(C)c(=O)c2cc1OC)-c1cc2c(cc1/C3=C\CCCCN)OCO2

Output:
1: 2.11; 2: 93.4; 3: 2.92; 4: 57.1

For every record below, what is its TGI?
1. OB([O][Hg][c]1ccccc1)[O][Hg][c]1ccccc1
2. Cc1c(NC(=O)C(=O)N=NC(=O)c2ccncc2)c(O)c2ccccc2c1O
3. CC(NC1=CC(=O)c2ncccc2C1=O)C(O)c1ccccc1 (centres undefined)
4. O=C(CCCc1c[nH]c2ccccc12)NC1CC(=O)c2c(Br)sc(Br)c21 (centres undefined)
5. Cc1ccc(S(=O)(=O)NC(CCC(=O)Nc2ccc(Cl)cc2)C(=O)Nc2ccc(Cl)cc2)cc1 (centres undefined)

Output:
1. 0.829
2. 32.6
3. 22.2
4. 80.8
5. 7.31

Input: Using the record for CC(CC(=O)CO[C@H]1[C@H](O)[C@@H](O)[C@@H](O)[C@@H]2NC(=O)c3c(cc4c(c3O)OCO4)[C@H]21)OC1OC(CO)C(O)C(O)C1O (some centres undefined) , report its TGI.
Output: 1.8
